Data provenance: ChEMBL document CHEMBL3286316

- assay notes: Half life in New Zealand rabbit myocardial infarction model plasma at 5 mg/kg, iv administered as bolus dose by LC/MS analysis
- Type: ADME, organism-based, Oryctolagus cuniculus
- Set-up: dose 5 mg/kg, route intravenous
measure: half-life (min)
Kindly provide the numeric value in min only, without the unit symbol.

### Prompt Item `O=C(/C=C/c1ccc(F)c(O)c1)Nc1cccc2ccccc12` has what recorded half-life?
### Response 30

----------
- assay notes: Plasma concentration in New Zealand rabbit myocardial infarction model at 5 mg/kg, iv administered as bolus dose after 5 mins by LC/MS analysis
- Format: ADME, organism-based, Oryctolagus cuniculus
- Design: dose 5 mg/kg, route intravenous
measure: concentration at 5 min (µM)
Kindly provide the numeric value in µM only, without the unit symbol.

### Prompt Item `O=C(/C=C/c1ccc(F)c(O)c1)Nc1cccc2ccccc12` has what recorded concentration at 5 min?
### Response 4.8
